Form field: Calcium Ion Binding Constants, Log KCa, pH 9.5 (one value per entry).
experiment: Calcium Binding Constants Determination (calcium selective electrode titration); type: physicochemical; details: pH 9.5; 35° C., 0.1 M ionic strength
Counter-ions that a name gives are not always drawn.
Reply with just the number.

In the examples that follow, each entry is paired with its recorded Calcium Ion Binding Constants, Log KCa, pH 9.5.
{"COMPOUND": "O=C([O-])C1CCC(C(=O)[O-])C(C(=O)[O-])(C(=O)[O-])O1.[Na+].[Na+].[Na+].[Na+] (centres unmarked) [Compound 7]", "NUMERIC RESULT": 6.2}
{"COMPOUND": "O=P(O)(O)OP(=O)(O)OP(=O)(O)O [Sodium tripolyphosphate, reference compound]", "NUMERIC RESULT": 4.9}

stdin: Query: Calcium Ion Binding Constants, Log KCa, pH 9.5; subject: O=C(O)COC(CC(=O)O)(C(=O)O)C(=O)O [Compound 5]
stdout: 5.5

stdin: Query: Calcium Ion Binding Constants, Log KCa, pH 9.5; subject: O=C(O)COC(CC(=O)O)C(=O)O (centres unmarked) [sodium salt, reference compound]
stdout: 4.4

stdin: Query: Calcium Ion Binding Constants, Log KCa, pH 9.5; subject: O=C([O-])CN(CC(=O)[O-])CC(=O)[O-].[Na+].[Na+].[Na+] [Nitrilotriacetic acid, sodium salt, reference compound]
stdout: 5.5
